Examples of molecules with documented MIC follow.
Test system: Acinetobacter baumannii
Test: Antibacterial activity against Carbapenem-resistant Acinetobacter baumannii clinical isolate incubated for 16 to 24 hrs by CLSI based broth microdilution method
Type: functional
Details: time 16-24 hrs

>  <COMPOUND_STRUCTURE_STRING>
CC(C)C[C@@H](N)C(=O)N[C@H]1C(=O)N[C@@H](CC(N)=O)C(=O)N[C@H]2C(=O)N[C@H]3C(=O)N[C@H](C(=O)N[C@H](C(=O)NCCCCN)c4cc(O)cc(O)c4-c4cc3ccc4O)[C@H](O)c3ccc(c(Cl)c3)Oc3cc2cc(c3O[C@@H]2O[C@H](CO)[C@@H](O)[C@H](O)[C@H]2O[C@H]2C[C@](C)(N)[C@H](O)[C@H](C)O2)Oc2ccc(cc2Cl)[C@H]1O

>  <MIC>
> 128 µg/mL

$$$$
>  <COMPOUND_STRUCTURE_STRING>
CC(C)C[C@@H](N)C(=O)N[C@H]1C(=O)N[C@@H](CC(N)=O)C(=O)N[C@H]2C(=O)N[C@H]3C(=O)N[C@H](C(=O)N[C@H](C(=O)NCc4ccc(-c5ccccc5CNC(=N)N)cc4)c4cc(O)cc(O)c4-c4cc3ccc4O)[C@H](O)c3ccc(c(Cl)c3)Oc3cc2cc(c3O[C@@H]2O[C@H](CO)[C@@H](O)[C@H](O)[C@H]2O[C@H]2C[C@](C)(N)[C@H](O)[C@H](C)O2)Oc2ccc(cc2Cl)[C@H]1O

>  <MIC>
16 µg/mL

$$$$
>  <COMPOUND_STRUCTURE_STRING>
CC(C)C[C@@H](N)C(=O)N[C@H]1C(=O)N[C@@H](CC(N)=O)C(=O)N[C@H]2C(=O)N[C@H]3C(=O)N[C@H](C(=O)N[C@H](C(=O)NCCCCCCN)c4cc(O)cc(O)c4-c4cc3ccc4O)[C@H](O)c3ccc(c(Cl)c3)Oc3cc2cc(c3O[C@@H]2O[C@H](CO)[C@@H](O)[C@H](O)[C@H]2O[C@H]2C[C@](C)(N)[C@H](O)[C@H](C)O2)Oc2ccc(cc2Cl)[C@H]1O

>  <MIC>
> 128 µg/mL

$$$$
>  <COMPOUND_STRUCTURE_STRING>
CN[C@H](CC(C)C)C(=O)N[C@H]1C(=O)N[C@@H](CC(N)=O)C(=O)N[C@H]2C(=O)N[C@H]3C(=O)N[C@H](C(=O)N[C@H](C(=O)N[C@H](CCCNC(=N)N)C(N)=O)c4cc(O)cc(O)c4-c4cc3ccc4O)[C@H](O)c3ccc(c(Cl)c3)Oc3cc2cc(c3O[C@@H]2O[C@H](CO)[C@@H](O)[C@H](O)[C@H]2O[C@H]2C[C@](C)(N)[C@H](O)[C@H](C)O2)Oc2ccc(cc2Cl)[C@H]1O

>  <MIC>
32 µg/mL

$$$$
>  <COMPOUND_STRUCTURE_STRING>
CN[C@H](CC(C)C)C(=O)N[C@H]1C(=O)N[C@@H](CC(N)=O)C(=O)N[C@H]2C(=O)N[C@H]3C(=O)N[C@H](C(=O)N[C@H](C(=O)O)c4cc(O)c(CNCCCCCCCCNC(=N)N)c(O)c4-c4cc3ccc4O)[C@H](O)c3ccc(c(Cl)c3)Oc3cc2cc(c3O[C@@H]2O[C@H](CO)[C@@H](O)[C@H](O)[C@H]2O[C@H]2C[C@](C)(N)[C@H](O)[C@H](C)O2)Oc2ccc(cc2Cl)[C@H]1O

>  <MIC>
128 µg/mL

$$$$
>  <COMPOUND_STRUCTURE_STRING>
CC(=O)NCCCCNC(=O)[C@H]1NC(=O)[C@H]2NC(=O)[C@H](NC(=O)[C@@H]3NC(=O)[C@H](CC(N)=O)NC(=O)[C@H](NC(=O)[C@H](N)CC(C)C)[C@H](O)c4ccc(c(Cl)c4)Oc4cc3cc(c4O[C@@H]3O[C@H](CO)[C@@H](O)[C@H](O)[C@H]3O[C@H]3C[C@](C)(N)[C@H](O)[C@H](C)O3)Oc3ccc(cc3Cl)[C@H]2O)c2ccc(O)c(c2)-c2c(O)cc(O)cc21

>  <MIC>
128 µg/mL

$$$$
